- Tested on: MDA-MB-435
- Assay info: NCI tumour cell line growth inhibition, 48 h
The source made the active and inactive calls. Cut-off read from the data, not from the text of the source: active = GI50 up to about 1.1 µM and inactive = higher. Residues, ends and D or L forms follow the SMILES beside them. *: point of attachment. Boc = CC(C)(C)OC(=O)*; Bz = O=C(c1ccccc1)*
Returns: one label drawn from active, inactive

Worked examples, 10 compounds total:
COC(=O)C1=C(O)C(C(=O)OC)[C@@]2(O)[C@@H](C(=O)OC)C(c3ccc(OC(=O)/C(=C/c4ccccc4)c4ccccc4)cc3)C[C@@H]1[C@@H]2C(=O)OC (stereo not given in full) : inactive
O=C1c2ccccc2S(=O)(=O)c2ccccc21 : inactive
COc1ccc(N/N=C/C2=CC(C)(C)C(C#N)(C#N)C(O)=C2C#N)cc1 : inactive
O=C1OC[C@@H]2[C@@H](O)CCCCCN12 : inactive
CSc1ccc(-c2cc(-c3nc4ccccc4[nH]3)no2)cc1 : inactive
CC(NC(=O)C(Cc1ccc(OC(=O)c2ccccc2)cc1)NC(=O)OC(C)(C)C)C(=O)NC(Cc1ccccc1)C(=O)NCC(N)=O (stereo not given) (Boc-Y(Bz)AFG-NH2; configuration not given here) : inactive
Cc1ccc(C2=Nn3c(nc4sc(C)c(C)c4c3=O)SC2)cc1 : inactive
COC(=O)N/N=C(/c1nc2ccc([N+](=O)[O-])cc2nc1O)C(O)c1ccc(OC)c(OC)c1 (stereo not given) : inactive
C=C(O)c1ccccc1C#Cc1ccccc1C(=O)OC : inactive
COc1ccc(OC)c(C2CCc3nc4nc(N)nc(N)c4cc3C2)c1 (stereo not given) : inactive

For O=C1CC2C(=O)C1C(C(=O)O)C2C(=O)O (stereo not given) , which call appears in the assay record? inactive

For "COc1ccc2c(c1)CC[C@@H]1[C@@H]2CC[C@]2(C)/C(=N/OCCN3CCCC3)CC[C@@H]12" , which call appears in the assay record? active

For O=C(/C=C/c1ccccc1)c1ccccc1 [CHALCONE] , which call appears in the assay record? inactive

For "CCOC(=O)[C@@]12C[C@](/C=C/OC)(O[Si](C)(C)C)[C@@]13c1cc(OC)c(OC)cc1CCN3C(=O)C2=O" , which call appears in the assay record? inactive

For CC(C)c1c(O)ccc2c1CCC1C(C)(C)CCCC21C (stereo not given) , which call appears in the assay record? inactive

For "NCCN/C(=N\c1ccccc1)Nc1ccccc1" , which call appears in the assay record? inactive

Origin of measurements: ChEMBL document CHEMBL1201862
